- assayedSystem: Carbonic anhydrase 2 (Homo sapiens)
- assayInfo: compounds binding carbonic anhydrase 2 – biochemical, small-molecule microarray, Alexa647-labelled CAII, profiling panel (AID 1122)
- testContext: CAII-A647 binding fluorescence, higher = more signal
metric: composite z-score

- molecule: "CC(=O)N1Cc2ccccc2C[C@@]2(N=C(c3ccc(OCCCO)cc3)O[C@H]2c2ccccc2)C1=O"
  assayedSystem: "Carbonic anhydrase 2 (Homo sapiens)"
  metric: "composite z-score"
  measurement: 0.709
- molecule: "C[C@H]1C2[C@H](Cc3ccccc3)NC(=O)[C@]23C(=O)N[C@H](Cc2ccccc2)C(=O)N[C@H](Cc2ccccc2)C(=O)NC/C=C/CCC/C=C/C3[C@@H]2O[C@]12C (some centres undefined)"
  assayedSystem: "Carbonic anhydrase 2 (Homo sapiens)"
  metric: "composite z-score"
  measurement: 0.312
- molecule: "C=C(COC)C(=O)CC[C@@H](OC(=O)c1ccccc1-c1ccccc1C(=O)O)c1ccc(CO)o1"
  assayedSystem: "Carbonic anhydrase 2 (Homo sapiens)"
  metric: "composite z-score"
  measurement: 0.309
- molecule: "COc1c(C)cc(-c2cc3c(c(-c4ccccc4)n2)[Si](C(C)C)(C(C)C)O[C@H]3c2ccccc2)cc1C"
  assayedSystem: "Carbonic anhydrase 2 (Homo sapiens)"
  metric: "composite z-score"
  measurement: -0.0516
- molecule: "CCCCN1CC=CC23O[C@@H]4/C=C\\CCCOC(=O)C4[C@H]2C(=O)N(C(C)CO)[C@@H]3C1=O (some centres undefined)"
  assayedSystem: "Carbonic anhydrase 2 (Homo sapiens)"
  metric: "composite z-score"
  measurement: 0.839
- molecule: "Cc1c(NC(=O)/C(C#N)=C/C=C/c2ccccc2)c(=O)n(-c2ccccc2)n1C"
  assayedSystem: "Carbonic anhydrase 2 (Homo sapiens)"
  metric: "composite z-score"
  measurement: 0.682
- molecule: "CCCCCCCCCCC(O)C1C=CC2C(=O)N(c3ccccc3)C(=O)C2N1Nc1ccc([N+](=O)[O-])cc1 (centres undefined)"
  assayedSystem: "Carbonic anhydrase 2 (Homo sapiens)"
  metric: "composite z-score"
  measurement: 0.594
- molecule: "COCCOC(=O)N1C(=O)[C@@]2(c3cc(C#CCCO)ccc31)[C@H](C(=O)NC[C@H](O)c1ccccc1)[C@H]1C(=O)O[C@H](c3ccccc3)[C@H](c3ccccc3)N1[C@@H]2c1ccc(OCCO)cc1"
  assayedSystem: "Carbonic anhydrase 2 (Homo sapiens)"
  metric: "composite z-score"
  measurement: 0.581
- molecule: "COc1ccc(C#Cc2ccc3c(c2)[C@]2(C(=O)N3)[C@H](c3ccc(OCCO)cc3)N3[C@H](c4ccccc4)[C@H](c4ccccc4)OC(=O)[C@H]3[C@@H]2C(=O)Nc2nc3ccccc3s2)cc1"
  assayedSystem: "Carbonic anhydrase 2 (Homo sapiens)"
  metric: "composite z-score"
  measurement: 0.645
- molecule: "COCCOC(=O)N1C(=O)[C@@]2(c3cc(C#CCCO)ccc31)[C@H](c1ccc(O)cc1)N1[C@H](c3ccccc3)[C@H](c3ccccc3)OC(=O)[C@H]1[C@@H]2C(=O)N1CCCCCCC1"
  assayedSystem: "Carbonic anhydrase 2 (Homo sapiens)"
  metric: "composite z-score"
  measurement: 0.431
- molecule: "Cc1ccc(C(C)CC(O)C2C=CC3C(=O)NC(=O)C3N2Nc2ccccn2)o1 (centres undefined)"
  assayedSystem: "Carbonic anhydrase 2 (Homo sapiens)"
  metric: "composite z-score"
  measurement: 0.887
- molecule: "CCCCCCC#C[Si](O[C@H](c1ccccc1)c1cn([C@H](C)c2ccccc2)nn1)(C(C)C)C(C)C"
  assayedSystem: "Carbonic anhydrase 2 (Homo sapiens)"
  metric: "composite z-score"
  measurement: -0.0858
- molecule: "CC1CC/C=C\\[C@H]2OC34C=CCN(c5ccc6ccccc6c5)C(=O)[C@H]3N(CCCCCO)C(=O)[C@@H]4C2C(=O)O1 (some centres undefined)"
  assayedSystem: "Carbonic anhydrase 2 (Homo sapiens)"
  metric: "composite z-score"
  measurement: -0.622
- molecule: "C=CCN1Cc2ccccc2C[C@@]2(COC(c3ccc(OCCCO)cc3)=N2)C1=O"
  assayedSystem: "Carbonic anhydrase 2 (Homo sapiens)"
  metric: "composite z-score"
  measurement: 0.598

Attribution: PubChem BioAssay
